// data source = patent US11999727B2

Measured pIC50 accompanies every entry in the list below.
Target: PRMT5 (Homo sapiens, UniProt O14744)
Construct: purchased Viva (custom protein)
Sequence (O14744 whole entry): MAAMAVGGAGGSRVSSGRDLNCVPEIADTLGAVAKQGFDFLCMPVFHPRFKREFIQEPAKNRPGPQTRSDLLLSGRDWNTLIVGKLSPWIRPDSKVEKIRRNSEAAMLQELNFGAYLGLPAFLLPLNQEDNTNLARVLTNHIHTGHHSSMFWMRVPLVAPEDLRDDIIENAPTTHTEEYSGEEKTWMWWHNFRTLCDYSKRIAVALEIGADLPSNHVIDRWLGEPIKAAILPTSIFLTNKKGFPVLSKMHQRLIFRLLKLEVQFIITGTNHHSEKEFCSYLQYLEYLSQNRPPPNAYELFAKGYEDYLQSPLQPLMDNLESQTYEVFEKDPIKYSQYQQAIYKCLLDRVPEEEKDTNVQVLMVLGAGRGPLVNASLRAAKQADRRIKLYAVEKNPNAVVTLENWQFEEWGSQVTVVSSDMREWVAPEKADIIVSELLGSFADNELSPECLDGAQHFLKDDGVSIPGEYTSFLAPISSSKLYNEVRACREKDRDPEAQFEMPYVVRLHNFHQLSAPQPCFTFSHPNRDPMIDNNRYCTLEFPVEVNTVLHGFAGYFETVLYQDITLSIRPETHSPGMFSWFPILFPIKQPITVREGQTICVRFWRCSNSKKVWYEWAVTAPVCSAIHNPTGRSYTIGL
Sequence (Q9BQA1 whole entry partner): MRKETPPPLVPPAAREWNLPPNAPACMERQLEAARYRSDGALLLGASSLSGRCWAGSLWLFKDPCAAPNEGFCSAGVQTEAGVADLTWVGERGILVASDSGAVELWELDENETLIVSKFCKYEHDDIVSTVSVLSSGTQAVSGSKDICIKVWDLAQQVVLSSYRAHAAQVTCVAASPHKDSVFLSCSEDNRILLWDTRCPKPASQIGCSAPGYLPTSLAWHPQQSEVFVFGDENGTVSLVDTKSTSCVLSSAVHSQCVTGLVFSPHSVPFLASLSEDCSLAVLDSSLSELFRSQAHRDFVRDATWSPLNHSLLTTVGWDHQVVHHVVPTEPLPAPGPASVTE
Assay: PRMT5 biochemical IC50 assay with SAM as cofactor
Conditions: PRMT5, SAM as cofactor; read-out: SAM IC50
pIC50: −log10 of the molar value.

                                   molecule  value_kind      measured
0  COc1ncc(NC(=O)C(=O)N2C[C@H](C)CC[C@H]2c2ccn(-c3cc[nH]n3)n2)cc1C(N)=O (single isomer, unassigned) [Compound 894]       pIC50  6.30 to 7.30
1  COc1ncc(NC(=O)C(=O)N2C[C@@H](C)CC[C@@H]2c2ccc(F)cc2)cc1C(N)=O (single isomer, unassigned) [Compound 445]       pIC50        < 6.30
2  CNc1ccc([C@@H]2CCC[C@H](C)N2C(=O)C(=O)Nc2cncc(C(N)=O)c2)cn1 (racemic) [Compound 561]       pIC50  6.30 to 7.30
3  CCc1cc(NC(=O)C(=O)N2C[C@H](C)CC[C@H]2c2cccc3[nH]ncc23)cnc1N (racemic) [Compound 911]       pIC50        < 6.30
4  Cc1cc(NC(=O)C(=O)N2C[C@H](C)CC[C@H]2C2CCNCC2)cnc1N (racemic) [Compound 708]       pIC50        < 6.30
5  Cc1cc(NC(=O)C(=O)N2CCCC[C@@H]2C2CCCC2)cnc1N (single isomer, unassigned) [Compound 336]       pIC50        < 6.30
6  C[C@@H]1CC[C@@H](c2ccccc2)N(C(=O)C(=O)Nc2cncc(C(N)=O)c2)[C@H]1C (racemic) [Compound 181]       pIC50  6.30 to 7.30
7  Cc1ccc([C@@H]2CC[C@@H](C)CN2C(=O)C(=O)Nc2cncc(C(N)=O)c2)cn1 (single isomer, unassigned) [Compound 654]       pIC50  6.30 to 7.30

# get_value(readout= pIC50, system= PRMT5 (Homo sapiens, UniProt O14744)) for Cc1cc(NC(=O)C(=O)N2C[C@@H](C)CC[C@@H]2c2ccc3c(c2)CCC(=O)N3)cnc1C (single isomer, unassigned) [Compound 619] < 6.30

Try the molecule Cc1cc(NC(=O)C(=O)N2CC(C)CC(C)C2c2ccccc2)cnc1N (mixture of isomers) [Compound 314] < 6.30

Try the molecule C[C@@H]1CC[C@@H](c2ccc3c(c2)CCCN3)N(C(=O)C(=O)Nc2cncc(C(N)=O)c2)C1 (single isomer, unassigned) [Compound 432] 6.30 to 7.30

Try the molecule COc1ncc(NC(=O)C(=O)N2C[C@@H](C)CC[C@H]2c2ccccc2)cc1C(N)=O (single isomer, unassigned) [Compound 322] < 6.30

Try the molecule CCc1cc(NC(=O)C(=O)N2C[C@@H](C)CC[C@@H]2c2ccc(OCCN(C)C)c(Cl)c2)cnc1N (racemic) [Compound 1305] 6.30 to 7.30
